# protocol.notes: Oral bioavailability in Han Wistar rat at 2.3 to […]
# Format: ADME, organism-based
# reported.conditions: in vivo
measurement.label: bioavailability (%)
Please reply with the bare figure in % and do not write the unit itself.

Item under review: Nc1ncnc2c1C(=O)N(c1ccc(-c3ccc(Cl)cc3Cl)cc1)CCO2 . Reported bioavailability?
87

---

# protocol.notes: Half life in rat at 1 mg/kg, iv
# Format: ADME, organism-based
# Parameters: dose 1 mg/kg, route intravenous
# reported.conditions: in vivo
measurement.label: half-life (h)
Provide the reading as a plain figure in h.

What measured half-life goes with Nc1ncnc2c1C(=O)N(c1ccc(-c3ccccc3F)cc1)CCO2 ?
6.7
